Where do these numbers come from? They come from patent US20250026849A1.

target_or_test_system: T1, CD123 (Homo sapiens (Human), UniProt P26951 19-305, limits assumed)
T1 construct: The CD123 construct used in the ELISA is not described; also called CD123-Signal
T1 sequence: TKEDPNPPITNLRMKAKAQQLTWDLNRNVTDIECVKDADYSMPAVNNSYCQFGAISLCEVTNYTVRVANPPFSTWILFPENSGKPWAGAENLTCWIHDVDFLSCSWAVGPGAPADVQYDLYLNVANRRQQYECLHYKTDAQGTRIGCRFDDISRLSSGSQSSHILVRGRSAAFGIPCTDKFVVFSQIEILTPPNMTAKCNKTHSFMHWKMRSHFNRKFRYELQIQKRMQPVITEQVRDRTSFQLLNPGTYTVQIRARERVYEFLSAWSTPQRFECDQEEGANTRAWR
assay_notes: ELISA
Parameters: unit not given here
result_type: ELISA_avg
One number for each entry.

Batch: ELISA_avg for all items listed.
1. D domain of SEQ ID NO: 655 (designed binder) MGSWLEFETRLHAIDERLWALGGSEAELAEFEEHIAWFEEDLQFYKGKGNPEVEALDFEADAIGWELWAYRHN
2. D domain of SEQ ID NO: 476 (designed binder) MGSWGYFKDDLAWIKGELEALGGSEAELAEFEWFIAVFEEDLQVYKGKGNPEVEALRKEAAAIRDELQAYRHN
3. D domain of SEQ ID NO: 410 (designed binder) MGSWVEFWDRLWAIDYRLFALGGSEAELAAFEKEIAAFESELQAYKGKGNPEVEALRDEAAWIREELQAYRHN

Reply text:
[4.6, 4.5, 3.6]

Batch: ELISA_avg for all items listed.
1. D domain of SEQ ID NO: 469 (designed binder) MGSWHWFKTDLADIKEELEALGGSEAELAMFEDDIAEFEEFLQMYKGKGNPEVEALRKEAAAIRDELQAYRHN
2. D domain of SEQ ID NO: 414 (designed binder) MGSWFEFHDRLWAIDERLWALGGSEAELAAFEKEIAAFESELQAYKGKGNPEVEILREEAADIRLDLQAYRHN

Reply text:
1: 3.5; 2: 3.5
